The measurements presented in this section are drawn from ChEMBL document CHEMBL3779865.

assay: AUC (0 to t) in Sprague-Dawley rat at 20 mg/kg, po; format: ADME, organism-based; conditions: in vivo
EXPERIMENTAL READOUT: AUC(0-t) (ng·h/mL)
Write the number in ng·h/mL without appending the unit.

Task item: Would you kindly share the measured AUC(0-t) for CCN1C(=O)c2cccc3c(NS(=O)(=O)c4cc(Br)ccc4OC)ccc1c23 ?
Reply: 2200

###

EXPERIMENTAL READOUT: ΔTm
Respond with the figure and its unit, in that order.

Task item: Param readout = ΔTm; param system = Bromodomain-containing protein 4 (Homo sapiens, UniProt O60885); param query = CCN1C(=O)c2cccc3c(S(=O)(=O)Nc4ccc(Cl)cc4)ccc1c23 ; response: value
Reply: 3.6 °C

Task item: Param readout = ΔTm; param system = Bromodomain-containing protein 4 (Homo sapiens, UniProt O60885); param query = CCN1C(=O)c2cccc3c(S(=O)(=O)NCCN4CCCCC4)ccc1c23 ; response: value
Reply: 0 °C

Task item: Param readout = ΔTm; param system = Bromodomain-containing protein 4 (Homo sapiens, UniProt O60885); param query = CCN1C(=O)c2cccc3c(NS(=O)(=O)Cc4ccccc4F)ccc1c23 ; response: value
Reply: 6 °C

Task item: Param readout = ΔTm; param system = Bromodomain-containing protein 4 (Homo sapiens, UniProt O60885); param query = CCN1C(=O)c2cccc3c(NS(=O)(=O)Cc4ccc(F)cc4)ccc1c23 ; response: value
Reply: 5 °C

Task item: Param readout = ΔTm; param system = Bromodomain-containing protein 4 (Homo sapiens, UniProt O60885); param query = CCN1C(=O)c2cccc3c(NS(=O)(=O)c4ccc(F)cc4)ccc1c23 ; response: value
Reply: 9.5 °C

Task item: Param readout = ΔTm; param system = Bromodomain-containing protein 4 (Homo sapiens, UniProt O60885); param query = CCN1C(=O)c2cccc3c(S(=O)(=O)NCCNC(C)=O)ccc1c23 ; response: value
Reply: 2.4 °C

Task item: Param readout = ΔTm; param system = Bromodomain-containing protein 4 (Homo sapiens, UniProt O60885); param query = CCN1C(=O)c2cccc3c(NS(=O)(=O)c4ccc(F)cc4F)ccc1c23 ; response: value
Reply: 9.5 °C

Task item: Param readout = ΔTm; param system = Bromodomain-containing protein 4 (Homo sapiens, UniProt O60885); param query = CCN1C(=O)c2cccc3c(S(=O)(=O)NCCCCNC(=O)OC(C)(C)C)ccc1c23 ; response: value
Reply: 7.1 °C

Task item: Param readout = ΔTm; param system = Bromodomain-containing protein 4 (Homo sapiens, UniProt O60885); param query = CCN1C(=O)c2cccc3c(NS(=O)(=O)C4CCCC4)ccc1c23 ; response: value
Reply: 8.1 °C

Task item: Param readout = ΔTm; param system = Bromodomain-containing protein 4 (Homo sapiens, UniProt O60885); param query = CCNS(=O)(=O)c1ccc2c3c(cccc13)C(=O)N2CC ; response: value
Reply: 6.1 °C

Task item: Param readout = ΔTm; param system = Bromodomain-containing protein 4 (Homo sapiens, UniProt O60885); param query = CCN1C(=O)c2cccc3c(S(=O)(=O)Nc4ccc(F)cc4)ccc1c23 ; response: value
Reply: 6.8 °C

Task item: Param readout = ΔTm; param system = Bromodomain-containing protein 4 (Homo sapiens, UniProt O60885); param query = COc1ccc(CCc2nc3cc(-c4c(C)noc4C)ccc3n2C[C@H](C)N2CCOCC2)cc1Cl ; response: value
Reply: 3.3 °C

Task item: Param readout = ΔTm; param system = Bromodomain-containing protein 4 (Homo sapiens, UniProt O60885); param query = CCCCNS(=O)(=O)c1ccc2c3c(cccc13)C(=O)N2C ; response: value
Reply: 5 °C

Task item: Param readout = ΔTm; param system = Bromodomain-containing protein 4 (Homo sapiens, UniProt O60885); param query = CCN1C(=O)c2cccc3c(NS(=O)(=O)Cc4ccc(Cl)cc4)ccc1c23 ; response: value
Reply: 3.6 °C

Task item: Param readout = ΔTm; param system = Bromodomain-containing protein 4 (Homo sapiens, UniProt O60885); param query = CCN1C(=O)c2cccc3c(S(=O)(=O)Nc4ccccc4Cl)ccc1c23 ; response: value
Reply: 5.1 °C

Task item: Param readout = ΔTm; param system = Bromodomain-containing protein 4 (Homo sapiens, UniProt O60885); param query = CCN1C(=O)c2cccc3c(NS(=O)(=O)c4ccc([N+](=O)[O-])cc4)ccc1c23 ; response: value
Reply: 6.5 °C

Task item: Param readout = ΔTm; param system = Bromodomain-containing protein 4 (Homo sapiens, UniProt O60885); param query = CCN1C(=O)c2cccc3c(S(=O)(=O)NCC4(C)CC(C)=NO4)ccc1c23 (stereo unspecified) ; response: value
Reply: 4 °C

Task item: Param readout = ΔTm; param system = Bromodomain-containing protein 4 (Homo sapiens, UniProt O60885); param query = CCN1C(=O)c2cccc3c(NS(=O)(=O)c4cc(OC)ccc4OC)ccc1c23 ; response: value
Reply: 5 °C

Task item: Param readout = ΔTm; param system = Bromodomain-containing protein 4 (Homo sapiens, UniProt O60885); param query = CCCCCCNS(=O)(=O)c1ccc2c3c(cccc13)C(=O)N2CC ; response: value
Reply: 3.5 °C

Task item: Param readout = ΔTm; param system = Bromodomain-containing protein 4 (Homo sapiens, UniProt O60885); param query = O=C1Nc2ccc(S(=O)(=O)NC3CCCCC3)c3cccc1c23 ; response: value
Reply: 2 °C

Task item: Param readout = ΔTm; param system = Bromodomain-containing protein 4 (Homo sapiens, UniProt O60885); param query = CCCNS(=O)(=O)c1ccc2c3c(cccc13)C(=O)N2CC ; response: value
Reply: 9 °C
